test: gradient 5% acetonitrile 3 min, to 50% in 2 min, to 85% in 15 min, held 3 min, 100 µL/min; conditions: column: Zorbax Extend-C18 2.1 x 50 mm; eluents: water / acetonitrile, 0.1% formic acid
Give measured RP-LC retention time for each item. Keep answers brief.
Give bare numbers, in s.

Examples from the recorded data:
CC(=O)c1ccc(NC(=O)c2cnc(-c3ccc(C(F)(F)F)cc3)nc2C)cc1: 1030
COCC1CN(C2CCC2)CC12CCN(C(=O)C(C)C)CC2 (stereo not given): 584
CCC(C)NS(=O)(=O)c1cc(-c2nnc(-c3ccc(OC)c(OC)c3)o2)ccc1C (stereo not given): 938
O=c1ccc(-c2nc(-c3cccc(Cl)c3)no2)cn1Cc1ccncc1: 722
Cc1cccc(CNC(=O)C2CCN(S(=O)(=O)c3cn(C(C)C)cn3)CC2)c1: 773

Record RP-LC retention time per entry; entries follow.
1. COc1ccc(Cl)cc1NC(=O)c1nc2nc(C)cc(C(F)F)n2n1
2. COc1ccc(-c2ncc3c(n2)CCN(S(=O)(=O)c2ccc(C)cc2C)C3)cc1
3. Cc1ccc(CNC(=O)C2(C)CCN(C(=O)Nc3ccc(C)c(F)c3)CC2)cc1
4. Cc1ccc(-c2nc(-c3ccc4c(c3)oc(=O)n4C)no2)cc1
5. CC(NC(=O)c1ccco1)C(=O)NCc1nn(C(C)C)c2ccccc12 (stereo not given)

1. 959
2. 1140
3. 914
4. 1120
5. 712

* * *

assay: gradient 5% acetonitrile 3 min, to 50% in 2 min, to 85% in 15 min, held 3 min, 100 µL/min; details: column: Zorbax Extend-C18 2.1 x 50 mm; eluents: water / acetonitrile, 0.1% formic acid
RP-LC retention time vs 700 s: at or above is Y, below is N.

Example entries and their recorded answers appear below.
COC1C(=O)N(CC2CC2)C12CCN(S(=O)(=O)c1cccc3cccnc13)CC2 (stereo not drawn): Y
O=C(NCCCN1CCCCC1)C1CCN(c2nc3cccnc3s2)CC1: N
Cc1cccc(Cn2c(CN3CCC(C(=O)NC4CCCCCCC4)CC3)cc3ccccc32)c1: Y
Cc1cc(C(=O)N2CCC3(CC2)C(=O)N(C)c2ccccc23)n(C)n1: Y
CCOC(=O)c1ccc(Nc2c(-c3ccc(C(=O)OC)cc3)nc3cnccn23)cc1: Y

RP-LC retention time >= 700 s for O=C1CC(NC(=O)C2(c3ccccc3)CCOCC2)CN1C1CC1 (stereo not drawn) ? N

RP-LC retention time >= 700 s for CCC1CN(C(=O)N2CCC(C(=O)NCCN3CCN(CC)CC3)CC2)c2cc(C)ccc2O1 (stereo not drawn) ? N

RP-LC retention time >= 700 s for CCCOc1nc2ccccc2nc1N1CCCC(C(=O)Nc2cc(Cl)ccc2OC)C1 (stereo not drawn) ? N

* * *

test: gradient 5% acetonitrile 3 min, to 50% in 2 min, to 85% in 15 min, held 3 min, 100 µL/min; conditions: column: Zorbax Extend-C18 2.1 x 50 mm; eluents: water / acetonitrile, 0.1% formic acid
measurementType: RP-LC retention time
Note: state the figure and append the unit.

Examples from the recorded data:
CCCn1cc(CCNC(=O)Nc2ccc(C)c(F)c2)c2cccnc21: 807 s
Cc1nc(SCC(=O)Nc2nc3ccccc3s2)c2c(=O)n(C)c(=O)n(C)c2n1: 793 s
Cc1ccccc1CC(=O)NC1CCN(c2ccccc2)C1=O (centres undefined): 811 s

Then there is this molecule:
Recorded RP-LC retention time of Cc1ccc(NC(=O)N2CCC3(CC2)N=C(c2ccccc2)C(=O)N3)cc1C , please. 824 s
